system-under-test: WEE1 (Homo sapiens, UniProt P30291+Q96SW2)
Construct: C-terminal ePL-tagged (DiscoverX, Fremont, CA) full-length WEE1 expression construct; expressed in transfected cells; host or cells: LentiX-HEK293T (Invitrogen), lentiviral transduction; co-expressing GSPT1-GN (G576N, lacking the first 158 amino acids)
protocol-notes: WEE1-ePL degradation assay (LentiX-WEE1-ePL-GSPT1-ND cells, InCELL Hunter luminescence, 4 h)
Format: cell-based
condition-parameters: 293T-LentiX WEE1-ePL cells, lower limit of the fit (0 = luciferase inhibitor, Ymax = DMSO control)
Label yes when 293T-LentiX WEE1-ePL Degradation 4 hr (Ymin) >= 30; otherwise no.

>>> df
                                   molecule  label_class
0  O=C1CCC(N2Cc3cc(O[C@H]4CCN(Cc5ccc6ncc(N7CCOCC7)cc6c5)C4)ccc3C2=O)C(=O)N1 (stereo partly drawn)           no
1  CN1CCc2ncc(CN3CC[C@H](Oc4ccc5c(c4)CN(C4CCC(=O)NC4=O)C5=O)C3)cc2C1 (stereo partly drawn)          yes
2  O=C1CCC(N2Cc3cc(O[C@H]4CCN(Cc5ccnc6c5CCOC6)C4)ccc3C2=O)C(=O)N1 (stereo partly drawn)          yes
3  COC1CN(c2ccc3cc(CN4CC[C@H](Oc5ccc6c(c5)CN(C5CCC(=O)NC5=O)C6=O)C4)ccc3n2)C1 (stereo partly drawn)          yes
4  CC(C)(O)c1ccc2cc(CN3CC[C@H](Oc4ccc5c(c4)CN([C@H]4CCC(=O)NC4=O)C5=O)C3)ccc2n1          yes
5  CNC(=O)c1ccc2cc(CN3CC[C@H](Oc4ccc5c(c4)CN(C4CCC(=O)NC4=O)C5=O)C3)ncc2c1 (stereo partly drawn)           no
6  O=C1CCC(N2Cc3cc(O[C@H]4CCN(Cc5ccc6nc(C7COC7)ccc6c5)C4)ccc3C2=O)C(=O)N1 (stereo partly drawn)          yes
7  CC1(C)C[C@@H](c2ncc3cc(CN4CC[C@H](Oc5ccc6c(c5)CN(C5CCC(=O)NC5=O)C6=O)C4)ccc3n2)CCO1 (stereo partly drawn)          yes

###

system-under-test: WEE1 (Homo sapiens, UniProt P30291+Q96SW2)
Construct: C-terminal ePL-tagged (DiscoverX, Fremont, CA) full-length WEE1 expression construct; expressed in transfected cells; host or cells: LentiX-HEK293T (Invitrogen), lentiviral transduction; co-expressing GSPT1-GN (G576N, lacking the first 158 amino acids)
protocol-notes: WEE1-ePL degradation assay (LentiX-WEE1-ePL-GSPT1-ND cells, InCELL Hunter luminescence, 4 h)
Type: cell-based
condition-parameters: 293T-LentiX WEE1-ePL cells, lower limit of the fit (0 = luciferase inhibitor, Ymax = DMSO control)
endpoint: 293T-LentiX WEE1-ePL Degradation 4 hr (Ymin)

In [3]: df
Out[3]:
                                    compound  experimental_result
 0  Cc1ccc2cc(CN3CC[C@H](Oc4ccc5c(c4)CN(C4CCC(=O)NC4=O)C5=O)C3)cc(F)c2n1 (stereo partly shown)                25.35
 1  CN(C(=O)C1CCOCC1)c1ccc2cc(CN3CC[C@H](Oc4ccc5c(c4)CN(C4CCC(=O)NC4=O)C5=O)C3)ccc2n1 (stereo partly shown)                 32.5
 2  CO[C@H]1CC[C@@H](Oc2ccc3cc(CN4CC[C@H](Oc5ccc6c(c5)CN(C5CCC(=O)NC5=O)C6=O)C4)ccc3n2)CC1 (stereo partly shown)                31.33
 3  O=C1CC[C@@H](N2Cc3cc(O[C@H]4CCN(Cc5ccc6nc(C7CCOCC7)ccc6c5)C4)ccc3C2=O)C(=O)N1                   33
 4  O=C1CCC(N2Cc3cc(O[C@H]4CCN(Cc5cc6cnccc6cn5)C4)ccc3C2=O)C(=O)N1 (stereo partly shown)                34.11
 5  N#Cc1ccc2cc(CN3CC[C@H](Oc4cc5c(cc4F)C(=O)N(C4CCC(=O)NC4=O)C5)C3)ccc2n1 (stereo partly shown)                 30.5
 6  CN(c1ccc2cc(CN3CC[C@H](Oc4ccc5c(c4)CN(C4CCC(=O)NC4=O)C5=O)C3)ccc2n1)C1CCOCC1 (stereo partly shown)                   32
 7  O=C1CCC(N2Cc3cc(O[C@H]4CCN(Cc5ccc6nc([C@H]7CCCOC7)ncc6c5)C4)ccc3C2=O)C(=O)N1 (stereo partly shown)                 28.5
 8  O=C1CCC(N2Cc3cc(O[C@H]4CCN(Cc5ccc6nc(COC7CCOCC7)ccc6c5)C4)ccc3C2=O)C(=O)N1 (stereo partly shown)                   33
 9  CO[C@H]1CCC[C@@H](c2ccc3cc(CN4CC[C@H](Oc5ccc6c(c5)CN(C5CCC(=O)NC5=O)C6=O)C4)ccc3n2)C1 (stereo partly shown)                 27.5
10  N#Cc1ccc2cc(CN3C[C@H](F)[C@H](Oc4ccc5c(c4)CN(C4CCC(=O)NC4=O)C5=O)C3)ccc2n1 (stereo partly shown)                33.71
11  O=C1CCC(N2Cc3cc(O[C@H]4CCN(Cc5ccc6nc([C@H]7CCOC7)ccc6c5)C4)ccc3C2=O)C(=O)N1 (stereo partly shown)                   29
12  O=C1CCC(N2Cc3cc(O[C@H]4CCN(Cc5ccc6nc(N7[C@@H]8CC[C@H]7COC8)ccc6c5)C4)ccc3C2=O)C(=O)N1 (stereo partly shown)                   28

###

system-under-test: WEE1 (Homo sapiens, UniProt P30291+Q96SW2)
Construct: C-terminal ePL-tagged (DiscoverX, Fremont, CA) full-length WEE1 expression construct; expressed in transfected cells; host or cells: LentiX-HEK293T (Invitrogen), lentiviral transduction; co-expressing GSPT1-GN (G576N, lacking the first 158 amino acids)
protocol-notes: WEE1-ePL degradation assay (LentiX-WEE1-ePL-GSPT1-ND cells, InCELL Hunter luminescence, 4 h)
Type: cell-based
condition-parameters: 293T-LentiX WEE1-ePL cells, lower limit of the fit (0 = luciferase inhibitor, Ymax = DMSO control)
Label rule met when 293T-LentiX WEE1-ePL Degradation 4 hr (Ymin) >= 40; otherwise rule not met.

                                    compound                         system_under_test   label_class
 0  O=C1CCC(N2Cc3cc(O[C@H]4CCN(Cc5cc(-c6cccc(C7=CCOCC7)c6)ccn5)C4)ccc3C2=O)C(=O)N1 (some centres unmarked)  WEE1 (Homo sapiens, UniProt P30291+Q96SW2)  rule not met
 1  O=C1CCC(N2Cc3cc(O[C@H]4CCN(Cc5ccc6nc(CO)ccc6c5)C4)ccc3C2=O)C(=O)N1 (some centres unmarked)  WEE1 (Homo sapiens, UniProt P30291+Q96SW2)  rule not met
 2  O=C1CCC(N2C(=O)c3ccc(O[C@@H]4CCN(Cc5cnc6ccccc6c5)C4)cc3C2=O)C(=O)N1 (some centres unmarked)  WEE1 (Homo sapiens, UniProt P30291+Q96SW2)      rule met
 3  O=C1CCC(N2Cc3cc(O[C@H]4CCN(Cc5cnc6ccccc6n5)C4)ccc3C2=O)C(=O)N1 (some centres unmarked)  WEE1 (Homo sapiens, UniProt P30291+Q96SW2)      rule met
 4  C#Cc1ncc2cc(CN3CC[C@H](Oc4ccc5c(c4)CN(C4CCC(=O)NC4=O)C5=O)C3)ccc2n1 (some centres unmarked)  WEE1 (Homo sapiens, UniProt P30291+Q96SW2)      rule met
 5  O=C1CCC(N2Cc3cc(O[C@H]4CCN(Cc5ccc(C(F)(F)F)cn5)C4)ccc3C2=O)C(=O)N1 (some centres unmarked)  WEE1 (Homo sapiens, UniProt P30291+Q96SW2)      rule met
 6  COc1cnc2ccc(CN3CC[C@H](Oc4ccc5c(c4)CN(C4CCC(=O)NC4=O)C5=O)C3)cc2c1 (some centres unmarked)  WEE1 (Homo sapiens, UniProt P30291+Q96SW2)  rule not met
 7  O=C1CCC(N2Cc3cc(O[C@H]4CCN(Cc5ccc6ccncc6c5)C4)ccc3C2=O)C(=O)N1 (some centres unmarked)  WEE1 (Homo sapiens, UniProt P30291+Q96SW2)      rule met
 8  O=C1CCC(N2Cc3cc(O[C@@H]4CCN(Cc5ccc6nc([C@@H]7CCOC7)ncc6c5)C4)ccc3C2=O)C(=O)N1 (relative stereo)  WEE1 (Homo sapiens, UniProt P30291+Q96SW2)  rule not met
 9  O=C1CCC(N2Cc3cc(O[C@@H]4CN(Cc5ccc6nc(C7CCOCC7)ccc6c5)C[C@H]4F)ccc3C2=O)C(=O)N1 (some centres unmarked)  WEE1 (Homo sapiens, UniProt P30291+Q96SW2)  rule not met
10  O=C1CCC(N2Cc3cc(O[C@H]4CCN(Cc5ccc6nc(N7CC[C@@H](O)C7)ccc6c5)C4)ccc3C2=O)C(=O)N1 (some centres unmarked)  WEE1 (Homo sapiens, UniProt P30291+Q96SW2)  rule not met
11  Cc1ncc2ccc(CN3CC[C@H](Oc4ccc5c(c4)CN(C4CCC(=O)NC4=O)C5=O)C3)cc2n1 (some centres unmarked)  WEE1 (Homo sapiens, UniProt P30291+Q96SW2)  rule not met
12  CN1CC[C@@H](c2ccc3cc(CN4CC[C@H](Oc5ccc6c(c5)CN(C5CCC(=O)NC5=O)C6=O)C4)ccc3n2)C1 (some centres unmarked)  WEE1 (Homo sapiens, UniProt P30291+Q96SW2)  rule not met
13  Cn1cc2cc(CN3CC[C@H](Oc4ccc5c(c4)CN(C4CCC(=O)NC4=O)C5=O)C3)ccc2n1 (some centres unmarked)  WEE1 (Homo sapiens, UniProt P30291+Q96SW2)      rule met
14  O=C1CCC(N2Cc3cc(O[C@H]4CCN(Cc5ccc6nc([C@H]7C[C@H](O)C7)ccc6c5)C4)ccc3C2=O)C(=O)N1 (some centres unmarked)  WEE1 (Homo sapiens, UniProt P30291+Q96SW2)  rule not met
15  O=C1CC[C@H](N2Cc3cc(O[C@H]4CCN(Cc5ccc6nc(C7CCOCC7)ccc6c5)C4)ccc3C2=O)C(=O)N1  WEE1 (Homo sapiens, UniProt P30291+Q96SW2)  rule not met
16  O=C1CCC(N2Cc3cc(O[C@H]4CCN(Cc5cc6ccc(C7CCOCC7)cc6cn5)C4)ccc3C2=O)C(=O)N1 (some centres unmarked)  WEE1 (Homo sapiens, UniProt P30291+Q96SW2)  rule not met
17  Cc1nc2ccccc2cc1CN1CC[C@H](Oc2ccc3c(c2)CN(C2CCC(=O)NC2=O)C3=O)C1 (some centres unmarked)  WEE1 (Homo sapiens, UniProt P30291+Q96SW2)  rule not met
18  O=C1CCC(N2Cc3cc(O[C@H]4CCN(Cc5cc(-c6cccc(N7CCOCC7)c6)ccn5)C4)ccc3C2=O)C(=O)N1 (some centres unmarked)  WEE1 (Homo sapiens, UniProt P30291+Q96SW2)  rule not met
19  COc1cncc(CN2CC[C@H](Oc3ccc4c(c3)CN(C3CCC(=O)NC3=O)C4=O)C2)c1 (some centres unmarked)  WEE1 (Homo sapiens, UniProt P30291+Q96SW2)  rule not met
